For each of the binders below, state its EC50 hNPY2R 0.5% hP (CreLuc).
- target.or.test.system: T1, NPY2 receptor (human (printed as hNPY2R), UniProt P49146 1-381)
- T1 sequence (looked up): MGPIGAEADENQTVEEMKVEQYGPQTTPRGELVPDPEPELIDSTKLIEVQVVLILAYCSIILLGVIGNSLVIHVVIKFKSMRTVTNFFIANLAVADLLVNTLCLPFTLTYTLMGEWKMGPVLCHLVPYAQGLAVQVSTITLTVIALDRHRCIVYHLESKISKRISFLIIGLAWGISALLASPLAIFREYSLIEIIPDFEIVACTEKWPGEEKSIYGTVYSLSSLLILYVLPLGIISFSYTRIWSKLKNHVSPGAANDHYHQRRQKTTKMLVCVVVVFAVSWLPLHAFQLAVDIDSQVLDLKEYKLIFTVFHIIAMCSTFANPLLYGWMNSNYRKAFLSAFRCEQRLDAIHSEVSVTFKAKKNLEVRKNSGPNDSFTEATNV
- assay.overview: cell-based or functional assay
Starred links: 1 amine or outer side, 2 acyl side, 3 side chain; linkers in the order of their positions; H or OH if unused. Non-standard residues stand in square brackets, D forms with d. Groups on a side chain read outwards from the residue. No end group written: not given here. *: point of attachment. C20 diacid = O=C(O)CCCCCCCCCCCCCCCCCCC(=O)*; C18 diacid = O=C(O)CCCCCCCCCCCCCCCCC(=O)*; γGlu = O=C(O)[C@H](CCC(=O)[*:2])N[*:1]; AEEA = NCCOCCOCC(=O)O; Aib = CC(C)(N)C(=O)O
Answers are plain numbers, in nM.

Please go through the list and note EC50 hNPY2R 0.5% hP (CreLuc) for each binder.
1. Y[Aib]EGTFTSDYSI[Aib]LEKQAQ[Aib]EFVQWLIK([γGlu-γGlu-γGlu-γGlu-C18 diacid])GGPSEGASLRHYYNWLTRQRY-NH2 (also: TFA salt) [Compound 202]
2. Y[Aib]EGTFTSDYSI[Aib]LEKQAQ[Aib]EFVEWLIKGGPSSGASLRHYYNWLTRQRY-NH2 (not fully specified (residue 28); also: TFA salt) [Compound 201]
3. Y[Aib]EGTFTSDYSI[Aib]LEKQAQ[Aib]EFVEWLIK([AEEA-AEEA-γGlu-γGlu-γGlu-γGlu-C20 diacid])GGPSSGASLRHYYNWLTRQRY-NH2 (also: TFA salt) [Compound 205]
4. YXEGTFTSDYSIXLEKQAQXAFVEWLIKGGPSEGQSLRHYYNWLTRQRY (Aib at 2, 13, 20; K28 side chain carries C20DA-gGlu-gGlu-gGlu-gGlu-gGlu-gGlu-eLys; C-terminal amide) [Compound 227]

1: 12.9; 2: 16.3; 3: 10.6; 4: 10.2
